Please provide measured log virus titer change for the entries that follow.
# System: HEp-2 cells, RSV plaque reduction, virus titer
# experiment: RSV plaque-forming yield inhibition – cell-based, plaque reduction (AID 504830)
# measurement_setup: at 25 µM; active compounds read low
Give bare numbers.

[[record]]
compound = "COc1ccc(C)c(NC(=O)[C@@H]2CCCN2S(=O)(=O)c2cccc3cccnc23)c1"
readout_value = -1

[[record]]
compound = "Cc1ccc(NC(=O)[C@@H]2CCCN2S(=O)(=O)c2cccc3cccnc23)c(C)c1"
readout_value = -1

[[record]]
compound = "Cc1ccc(NC(=O)C2CCCN2S(=O)(=O)c2cccc3cccnc23)c(C)c1 (centres undefined)"
readout_value = -2.1


Then there is this compound:
Kindly note: HEp-2 cells, RSV plaque reduction, virus titer, Cc1ccc(C)c(NC(=O)[C@@H]2CCCN2S(=O)(=O)c2cccc3cccnc23)c1 , log virus titer change value reported: -2
